tested on: BC-1 (B-Cell Non-Hodgkin's Lymphoma); assay: Bliss excess, mean over the matrix (fraction); higher = more synergy
reported property: Bliss excess
Write no unit; give the number alone.

Read the entry C[C@@H](Nc1cc(F)cc(F)c1)c1cc(C(=O)N(C)C)cc2c(=O)cc(N3CCOCC3)oc12 [AZD8186] + CC(=O)c1c(C)c2cnc(Nc3ccc(N4CCNCC4)cn3)nc2n(C2CCCC2)c1=O [Palbociclib] (first compound max 10 µM, 7x7, partner max 10 µM) and write its reported Bliss excess. 0.0867

Read the entry CC1(C)CCC(CN2CCN(c3ccc(C(=O)NS(=O)(=O)c4ccc(NCC5CCOCC5)c([N+](=O)[O-])c4)c(Oc4cnc5[nH]ccc5c4)c3)CC2)=C(c2ccc(Cl)cc2)C1 [Venetoclax] + C1CN(CCC1(C(=O)N[C@@H](CCO)C2=CC=C(C=C2)Cl)N)C3=NC=NC4=C3C=CN4 [Capivasertib] (first compound max 1 µM, 7x7, partner max 3 µM) and write its reported Bliss excess. -0.011

Read the entry CS(=O)(=O)CCNCc1ccc(-c2ccc3ncnc(Nc4ccc(OCc5cccc(F)c5)c(Cl)c4)c3c2)o1 [Lapatinib] + Cn1cnc2c(F)c(Nc3ccc(Br)cc3Cl)c(C(=O)NOCCO)cc21 [Selumetinib] (first compound max 10 µM, 7x7, partner max 10 µM) and write its reported Bliss excess. 0.0547

---

tested on: SBC-3 (Small Cell Lung Carcinoma); assay: Bliss excess, mean over the matrix (fraction); higher = more synergy
Would you kindly list Bliss excess for each of these compounds?
Write no unit; give the number alone.

Read the entry Cc1cc2ncnn2cc1Nc1ncc2c(n1)n(C1CCOCC1)c(=O)n2C [AZD7648] + COc1cc([C@@H]2c3cc4c(cc3[C@@H](O[C@@H]3O[C@@H]5CO[C@@H](C)O[C@H]5[C@H](O)[C@H]3O)[C@H]3COC(=O)[C@H]23)OCO4)cc(OC)c1O [Etoposide] (first compound max 10 µM, 7x7, partner max 10 µM) and write its reported Bliss excess. 0.119

Read the entry NC1(C(=O)N[C@@H](CCO)c2ccc(Cl)cc2)CCN(c2ncnc3[nH]ccc23)CC1 [Capivasertib] + CC(=O)c1c(C)c2cnc(Nc3ccc(N4CCNCC4)cn3)nc2n(C2CCCC2)c1=O [Palbociclib] (first compound max 10 µM, 7x7, partner max 10 µM) and write its reported Bliss excess. 0.0265

Read the entry NC1(C(=O)N[C@@H](CCO)c2ccc(Cl)cc2)CCN(c2ncnc3[nH]ccc23)CC1 [Capivasertib] + COc1nnc2ccc(N3CCC(c4ccc(OCCN5CCN(C)C(=O)[C@H]5C)cc4)CC3)nn12 [AZD5153] (first compound max 10 µM, 7x7, partner max 1 µM) and write its reported Bliss excess. -0.0135

---

Would you kindly list combination Emax for each of these compounds?
system: NCI-H1435 (Non-Small Cell Lung Carcinoma); assay: combination Emax (second highest fraction inhibited in the dose matrix, 72 h); higher = more inhibition; extreme values may be limits of the assay

Read the entry Cc1c2c(nn1C)CSCc1cc(n(C)n1)CSc1cc(c3ccccc3c1)OCCCc1c(C(=O)O)n(C)c3c-2c(Cl)ccc13 [AZD5991] + CN(C)CCCOc1ccc(-c2ccc3ncc4c(c3c2)n(C2CCOCC2)c(=O)n4C)cn1 [AZD0156] (first compound max 1 µM, 7x7, partner max 1 µM) and write its reported combination Emax. 0.233

Read the entry CN(CCO)CC[C@H](CSc1ccccc1)Nc1ccc(S(=O)(=O)NC(=O)c2ccc(N3CCC([C@@H](O)c4ccccc4-c4ccc(Cl)cc4)CC3)cc2)cc1S(=O)(=O)C(F)(F)F [AZD4320] + CS(=O)(=O)CCNCc1ccc(-c2ccc3ncnc(Nc4ccc(OCc5cccc(F)c5)c(Cl)c4)c3c2)o1 [Lapatinib] (first compound max 1 µM, 7x7, partner max 10 µM) and write its reported combination Emax. 0.953

Read the entry COc1nnc2ccc(N3CCC(c4ccc(OCCN5CCN(C)C(=O)[C@H]5C)cc4)CC3)nn12 [AZD5153] + Cc1c2c(nn1C)CSCc1cc(n(C)n1)CSc1cc(c3ccccc3c1)OCCCc1c(C(=O)O)n(C)c3c-2c(Cl)ccc13 [AZD5991] (first compound max 1 µM, 7x7, partner max 1 µM) and write its reported combination Emax. 0.296

Read the entry COc1cccc2c1C(=O)c1c(O)c3c(c(O)c1C2=O)C[C@@](O)(C(=O)CO)C[C@@H]3O[C@H]1C[C@H](N)[C@H](O)[C@H](C)O1 [Doxorubicin] + Cc1cc2ncnn2cc1Nc1ncc2c(n1)n(C1CCOCC1)c(=O)n2C [AZD7648] (first compound max 1 µM, 7x7, partner max 10 µM) and write its reported combination Emax. 0.198

Read the entry CCN(CCO)CCCOc1ccc2c(Nc3cc(CC(=O)Nc4cccc(F)c4)[nH]n3)ncnc2c1 [AZD2811] + C=CCn1c(=O)c2cnc(Nc3ccc(N4CCN(C)CC4)cc3)nc2n1-c1cccc(C(C)(C)O)n1 [AZD1775] (first compound max 1 µM, partner max 1 µM) and write its reported combination Emax. 0.143

Read the entry CC1(C)CCC(CN2CCN(c3ccc(C(=O)NS(=O)(=O)c4ccc(NCC5CCOCC5)c([N+](=O)[O-])c4)c(Oc4cnc5[nH]ccc5c4)c3)CC2)=C(c2ccc(Cl)cc2)C1 [Venetoclax] + C[C@@H]1COCCN1C2=NC(=NC(=C2)C3(CC3)[S@](=N)(=O)C)C4=C5C=CNC5=NC=C4 [AZD6738] (first compound max 1 µM, 7x7, partner max 10 µM) and write its reported combination Emax. 0.177

Provenance of the data: the supplement of paper PMC11061612
